# inhibition at 1 µM listing for each entry below
study-system: Androgen Receptor (AR) protein (Homo sapiens, UniProt P10275, T878A)
Construct: endogenous in cells; host or cells: LNCaP
Sequence (P10275 whole entry T878A): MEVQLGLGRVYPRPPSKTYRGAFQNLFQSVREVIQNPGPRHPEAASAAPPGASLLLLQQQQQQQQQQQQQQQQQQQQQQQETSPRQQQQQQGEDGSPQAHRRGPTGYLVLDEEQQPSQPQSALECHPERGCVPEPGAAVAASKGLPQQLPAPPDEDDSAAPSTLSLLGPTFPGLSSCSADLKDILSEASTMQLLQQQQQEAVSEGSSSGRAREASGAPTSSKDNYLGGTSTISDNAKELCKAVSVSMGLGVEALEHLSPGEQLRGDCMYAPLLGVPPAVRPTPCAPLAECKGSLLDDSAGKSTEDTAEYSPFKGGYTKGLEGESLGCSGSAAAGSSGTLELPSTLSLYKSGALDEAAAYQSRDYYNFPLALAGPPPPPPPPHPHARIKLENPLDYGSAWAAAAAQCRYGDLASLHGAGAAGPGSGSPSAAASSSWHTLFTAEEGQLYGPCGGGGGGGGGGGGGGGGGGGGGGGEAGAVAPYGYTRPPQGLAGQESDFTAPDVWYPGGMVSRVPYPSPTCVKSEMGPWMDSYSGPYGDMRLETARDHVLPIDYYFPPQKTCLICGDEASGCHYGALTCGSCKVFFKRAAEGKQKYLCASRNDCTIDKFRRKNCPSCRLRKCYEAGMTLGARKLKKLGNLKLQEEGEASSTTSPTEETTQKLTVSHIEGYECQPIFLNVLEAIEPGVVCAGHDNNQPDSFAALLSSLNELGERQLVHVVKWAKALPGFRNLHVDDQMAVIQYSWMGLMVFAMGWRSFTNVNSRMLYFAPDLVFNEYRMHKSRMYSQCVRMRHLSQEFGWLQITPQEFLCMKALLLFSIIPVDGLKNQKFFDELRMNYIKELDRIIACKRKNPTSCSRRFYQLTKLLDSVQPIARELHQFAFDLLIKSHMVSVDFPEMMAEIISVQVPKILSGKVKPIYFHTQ
Sequence (Q96SW2 whole entry partner): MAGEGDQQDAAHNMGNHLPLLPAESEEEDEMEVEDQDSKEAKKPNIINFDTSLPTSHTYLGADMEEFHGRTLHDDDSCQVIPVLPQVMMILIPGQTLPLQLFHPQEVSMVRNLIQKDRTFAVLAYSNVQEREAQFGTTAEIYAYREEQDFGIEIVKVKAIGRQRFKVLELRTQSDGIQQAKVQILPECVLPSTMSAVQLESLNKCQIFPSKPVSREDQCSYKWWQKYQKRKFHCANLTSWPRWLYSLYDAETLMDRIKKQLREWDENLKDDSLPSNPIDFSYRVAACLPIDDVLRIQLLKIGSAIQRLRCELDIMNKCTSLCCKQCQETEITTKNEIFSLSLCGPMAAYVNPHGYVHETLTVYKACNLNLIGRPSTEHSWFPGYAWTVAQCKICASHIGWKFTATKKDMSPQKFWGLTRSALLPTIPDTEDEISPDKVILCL
experiment-notes: Androgen Receptor (AR) protein degradation assay in LNCaP cells, western blotting
Assay type: cell-based
measurement-conditions: 20 h, 1 μM compound

compound: N#Cc1ccc(N2CCC(C(=O)Nc3ccc(N4CCC(CCN5CCN(c6ccc7c(n6)CN(C6CCC(=O)NC6=O)C7=O)CC5)CC4)cn3)CC2)cc1C(F)(F)F (centres unmarked) [Example 92]
study-system: Androgen Receptor (AR) protein (Homo sapiens, UniProt P10275, T878A)
inhibition at 1 µM: 96%

compound: N#Cc1ccc(N2CCC(C(=O)Nc3ccc(N4CCC(CCN5CCN(C6CN(c7ccc8c(c7)C(=O)N(C7CCC(=O)NC7=O)C8=O)C6)CC5)CC4)cn3)CC2)cc1C(F)(F)F (centres unmarked) [Example 99]
study-system: Androgen Receptor (AR) protein (Homo sapiens, UniProt P10275, T878A)
inhibition at 1 µM: 96%

compound: N#Cc1ccc(N2CCC(C(=O)Nc3ccc(N4CCN(CCCCCOc5ccc6c(c5)C(=O)N(C5CCC(=O)NC5=O)C6=O)CC4)cn3)CC2)cc1Cl (centres unmarked) [Example 114]
study-system: Androgen Receptor (AR) protein (Homo sapiens, UniProt P10275, T878A)
inhibition at 1 µM: 91%

compound: N#Cc1ccc(N2CCC(C(=O)Nc3ccc(N4CCC(CCN5CCC6(CC5)CN(c5ccc7c(n5)CN(C5CCC(=O)NC5=O)C7=O)C6)CC4)cn3)CC2)cc1C(F)(F)F (centres unmarked) [Example 96]
study-system: Androgen Receptor (AR) protein (Homo sapiens, UniProt P10275, T878A)
inhibition at 1 µM: 91%

compound: N#Cc1ccc(N2CCC(C(=O)Nc3ccc(CCN4CCN(CC5CCN(c6ccc7c(c6)C(=O)N(C6CCC(=O)NC6=O)C7=O)CC5)CC4)cn3)CC2)cc1C(F)(F)F (centres unmarked) [Example 166]
study-system: Androgen Receptor (AR) protein (Homo sapiens, UniProt P10275, T878A)
inhibition at 1 µM: 97%

compound: CC1(CN2CCC(COc3ccc(NC(=O)C4CCN(c5ccc(C#N)c(C(F)(F)F)c5)CC4)nc3)CC2)CN(c2ccc3c(c2)C(=O)N(C2CCC(=O)NC2=O)C3=O)C1 (centres unmarked) [Example 184]
study-system: Androgen Receptor (AR) protein (Homo sapiens, UniProt P10275, T878A)
inhibition at 1 µM: 97%

compound: N#Cc1ccc(N2CCC(C(=O)Nc3ccc(OCCN4CCC(Oc5ccc6c(c5)C(=O)N(C5CCC(=O)NC5=O)C6=O)CC4)cn3)CC2)cc1C(F)(F)F (centres unmarked) [Example 178]
study-system: Androgen Receptor (AR) protein (Homo sapiens, UniProt P10275, T878A)
inhibition at 1 µM: 87%

compound: N#Cc1ncc(N2CCC(C(=O)Nc3ccc(N4CCC(CN5CCN(CC6CCN(c7ccc8c(c7)C(=O)N(C7CCC(=O)NC7=O)C8=O)CC6)CC5)CC4)cn3)CC2)cc1C(F)(F)F (centres unmarked) [Example 9]
study-system: Androgen Receptor (AR) protein (Homo sapiens, UniProt P10275, T878A)
inhibition at 1 µM: 95%

compound: N#Cc1ccc(N2CCC(C(=O)Nc3ccc(N4CC(CN5CCN(CC6CN(c7ccc8c(c7)C(=O)N(C7CCC(=O)NC7=O)C8=O)C6)CC5)C4)cn3)CC2)cc1C(F)(F)F (centres unmarked) [Example 30]
study-system: Androgen Receptor (AR) protein (Homo sapiens, UniProt P10275, T878A)
inhibition at 1 µM: 97%

compound: N#Cc1ccc(N2CCC(C(=O)Nc3ccc(N4CCC(CN5CCN(c6ccc7c(c6)C(=O)N(C6CCC(=O)NC6=O)C7=O)CC5)CC4)cn3)CC2)cc1Cl (centres unmarked) [Example 2]
study-system: Androgen Receptor (AR) protein (Homo sapiens, UniProt P10275, T878A)
inhibition at 1 µM: 97%

compound: N#Cc1ccc(N2CCC(C(=O)Nc3ccc(CCC4CCN(CC5CCN(c6ccc7c(c6)C(=O)N(C6CCC(=O)NC6=O)C7=O)CC5)CC4)cn3)CC2)cc1C(F)(F)F (centres unmarked) [Example 133]
study-system: Androgen Receptor (AR) protein (Homo sapiens, UniProt P10275, T878A)
inhibition at 1 µM: 98%
